Measured pIC50 of individual entries
Biological target: UniProt:Q04912
Sequence (Q04912 25-304 limits assumed): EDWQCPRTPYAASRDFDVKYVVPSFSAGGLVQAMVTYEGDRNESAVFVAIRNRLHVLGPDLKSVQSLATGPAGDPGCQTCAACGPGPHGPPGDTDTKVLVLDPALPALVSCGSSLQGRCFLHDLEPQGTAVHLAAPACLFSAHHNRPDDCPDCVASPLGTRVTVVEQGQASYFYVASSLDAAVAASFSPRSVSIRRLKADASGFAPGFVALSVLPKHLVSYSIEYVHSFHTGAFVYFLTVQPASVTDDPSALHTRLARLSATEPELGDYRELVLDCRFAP
Sequence (Q04912 310-1400 limits assumed): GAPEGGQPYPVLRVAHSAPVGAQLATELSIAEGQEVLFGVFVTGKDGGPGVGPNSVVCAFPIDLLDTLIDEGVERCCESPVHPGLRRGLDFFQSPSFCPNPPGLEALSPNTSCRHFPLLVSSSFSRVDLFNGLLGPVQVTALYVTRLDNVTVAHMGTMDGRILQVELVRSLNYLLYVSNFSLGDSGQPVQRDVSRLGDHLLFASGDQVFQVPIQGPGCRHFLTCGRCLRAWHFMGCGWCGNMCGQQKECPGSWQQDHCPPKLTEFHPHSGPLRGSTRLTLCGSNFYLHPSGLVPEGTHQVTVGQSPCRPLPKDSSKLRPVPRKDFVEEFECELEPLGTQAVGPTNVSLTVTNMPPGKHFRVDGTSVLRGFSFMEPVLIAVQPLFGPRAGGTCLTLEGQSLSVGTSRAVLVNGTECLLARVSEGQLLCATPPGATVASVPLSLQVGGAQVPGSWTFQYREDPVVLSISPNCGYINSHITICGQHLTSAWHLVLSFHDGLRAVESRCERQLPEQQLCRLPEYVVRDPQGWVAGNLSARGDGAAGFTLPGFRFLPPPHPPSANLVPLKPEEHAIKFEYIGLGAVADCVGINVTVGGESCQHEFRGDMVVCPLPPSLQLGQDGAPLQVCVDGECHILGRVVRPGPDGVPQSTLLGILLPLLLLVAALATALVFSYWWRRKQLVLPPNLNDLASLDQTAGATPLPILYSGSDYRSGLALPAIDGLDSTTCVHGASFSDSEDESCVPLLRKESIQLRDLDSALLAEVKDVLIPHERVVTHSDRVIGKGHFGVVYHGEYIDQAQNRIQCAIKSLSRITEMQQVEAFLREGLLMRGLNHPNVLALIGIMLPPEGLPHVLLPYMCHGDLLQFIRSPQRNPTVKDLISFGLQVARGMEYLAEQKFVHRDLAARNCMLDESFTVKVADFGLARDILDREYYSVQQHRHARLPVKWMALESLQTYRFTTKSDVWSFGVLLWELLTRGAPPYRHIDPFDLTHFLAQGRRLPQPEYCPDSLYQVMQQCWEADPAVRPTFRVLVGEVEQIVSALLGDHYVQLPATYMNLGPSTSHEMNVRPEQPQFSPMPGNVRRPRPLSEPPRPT
Experiment: Inhibition of TPR-tagged RON catalytic domain expressed in HEK293 cells
pIC50: −log10 of the molar value.

CNC(=O)c1cc(Oc2ccc(NC(=O)c3cnn(-c4ccccc4)c3C(F)(F)F)cc2F)ccn1    < 5.00
Cn1cnc(-c2cc3nccc(Oc4ccc(NC(=O)c5cnn(-c6ccccc6)c5N)cc4F)c3s2)c1    < 6.00
Cn1cnc(-c2cc3nccc(Oc4ccc(NC(=O)c5cnn(-c6ccccc6)c5C(F)(F)F)cc4F)c3s2)c1    7.30

Pending compound:
pIC50 reading for Cn1cnc(-c2cc3nccc(Oc4ccc(NC(=O)c5cnn(C)c5C(F)(F)F)cc4F)c3s2)c1 : < 6.00

###

Experiment: Volume of distribution at steady state in rat at 2.5 mg/kg, iv and 5 mg/kg, po
Format: ADME, organism-based
Conditions: in vivo, read-out: Vdss
quantity: Vd (L/kg)
Kindly provide the numeric value in L/kg only, without the unit symbol.

Vd reading for Cn1cnc(-c2cc3nccc(Oc4ccc(NC(=O)c5cnn(-c6ccccc6)c5C(F)(F)F)cc4F)c3s2)c1 : 2.4

###

Assay: Oral bioavailability in rat at 5 mg/kg, po
Type: ADME, organism-based
Settings: in vivo
quantity: bioavailability

bioavailability reading for Cn1cnc(-c2cc3nccc(Oc4ccc(NC(=O)c5cnn(-c6ccccc6)c5C(F)(F)F)cc4F)c3s2)c1 : > 30%

###

Dear all, this message contains pIC50 results, target or system Vascular endothelial growth factor receptor 2 (Homo sapiens).
pIC50: −log10 of the molar value.
quantity: pIC50

Consider the worked cases shown below.
CN(C)C(=O)c1ccc(-c2cc3nccc(Oc4ccc(NC(=O)c5cnn(-c6ccccc6)c5C(F)(F)F)cc4F)c3s2)nc1    5.60
Cn1cnc(-c2cc3nccc(Oc4ccc(NC(=O)N5CCN(c6ccccc6)C5=O)cc4F)c3s2)c1    8.00
CN(C)CCN(C)C(=O)c1ccc(-c2cc3nccc(Oc4ccc(NC(=O)c5cnn(-c6ccccc6)c5C(F)(F)F)cc4F)c3s2)cc1    6.15
Cn1cnc(-c2cc3nccc(Oc4ccc(NC(=O)c5cnn(-c6ccccc6)c5N)cc4F)c3s2)c1    6.10
CCCc1c(C(=O)Nc2ccc(Oc3ccnc4cc(-c5cn(C)cn5)sc34)c(F)c2)cnn1-c1ccccc1    5.72

A: COCCNC(=O)c1ccc(-c2cc3nccc(Oc4ccc(NC(=O)c5cnn(-c6ccccc6)c5C(F)(F)F)cc4F)c3s2)nc1
B: CC(=O)N1CC=C(c2cc3nccc(Oc4ccc(NC(=O)c5cnn(-c6ccccc6)c5C(F)(F)F)cc4F)c3s2)CC1
[in] // compare measured pIC50 between A and B ; output the lower one Indicate which entry you chose by stating its label.
[out] A

###

Target: Hepatocyte growth factor receptor (Homo sapiens)
Sequence (P08581 whole entry): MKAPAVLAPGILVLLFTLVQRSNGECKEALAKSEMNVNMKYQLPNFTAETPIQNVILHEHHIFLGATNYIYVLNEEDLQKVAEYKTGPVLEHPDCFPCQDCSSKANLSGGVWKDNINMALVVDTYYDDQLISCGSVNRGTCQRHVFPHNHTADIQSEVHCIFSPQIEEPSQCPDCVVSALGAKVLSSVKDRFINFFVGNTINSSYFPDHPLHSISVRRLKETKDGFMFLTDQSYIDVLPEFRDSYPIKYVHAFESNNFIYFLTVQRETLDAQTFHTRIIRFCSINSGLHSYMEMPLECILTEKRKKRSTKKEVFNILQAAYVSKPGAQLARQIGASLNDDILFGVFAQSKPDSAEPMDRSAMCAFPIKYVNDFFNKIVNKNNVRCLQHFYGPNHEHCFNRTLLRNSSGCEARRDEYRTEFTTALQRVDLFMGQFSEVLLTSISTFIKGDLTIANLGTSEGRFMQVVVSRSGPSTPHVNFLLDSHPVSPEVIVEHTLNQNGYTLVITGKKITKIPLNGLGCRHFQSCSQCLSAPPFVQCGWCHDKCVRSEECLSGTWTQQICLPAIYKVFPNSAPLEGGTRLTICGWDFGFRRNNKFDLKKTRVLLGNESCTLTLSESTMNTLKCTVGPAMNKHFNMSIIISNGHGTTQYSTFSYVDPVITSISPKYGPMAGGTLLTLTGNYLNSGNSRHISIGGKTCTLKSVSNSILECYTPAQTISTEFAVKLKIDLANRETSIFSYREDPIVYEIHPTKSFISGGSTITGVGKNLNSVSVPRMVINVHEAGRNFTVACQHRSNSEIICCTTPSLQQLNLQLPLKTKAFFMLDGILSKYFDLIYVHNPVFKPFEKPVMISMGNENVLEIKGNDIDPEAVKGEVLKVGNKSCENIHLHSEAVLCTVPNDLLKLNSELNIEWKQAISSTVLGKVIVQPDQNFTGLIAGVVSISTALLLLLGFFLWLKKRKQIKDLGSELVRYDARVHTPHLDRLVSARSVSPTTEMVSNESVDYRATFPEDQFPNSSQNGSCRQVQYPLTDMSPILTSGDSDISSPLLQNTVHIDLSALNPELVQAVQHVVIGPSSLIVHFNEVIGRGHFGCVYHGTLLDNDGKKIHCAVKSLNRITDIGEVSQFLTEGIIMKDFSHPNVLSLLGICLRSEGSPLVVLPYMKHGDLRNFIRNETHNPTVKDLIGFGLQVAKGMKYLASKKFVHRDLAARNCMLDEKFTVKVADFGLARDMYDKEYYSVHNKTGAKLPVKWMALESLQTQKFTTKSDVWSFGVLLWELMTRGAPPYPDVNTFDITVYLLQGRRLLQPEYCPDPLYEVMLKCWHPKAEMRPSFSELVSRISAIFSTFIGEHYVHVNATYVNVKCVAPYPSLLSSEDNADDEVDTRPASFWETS
Experiment: Inhibition of c-Met
quantity: IC50 (nM)

Cn1cnc(-c2cc3nccc(Oc4ccc(NC(=O)c5cnn(-c6ccccc6)c5C(F)(F)F)cc4F)c3s2)c1    150

1: Cn1cnc(-c2cc3nccc(Oc4ccc(NC(=O)c5cnn(-c6ccccc6)c5N)cc4F)c3s2)c1
2: Cn1cnc(-c2cc3nccc(Oc4ccc(NC(=O)c5cnn(C)c5C(F)(F)F)cc4F)c3s2)c1
[in] // compare measured IC50 between 1 and 2 ; output the lower one Indicate which entry you chose by stating its label.
[out] 2
(2: 60 nM, 1: 180 nM)

###

Target: UniProt:P08581
Assay: Inhibition of c-Met phosphorylation in human MKN45 cells
Format: cell-based, MKN-45
quantity: pIC50
# pIC50 is unitless: minus log10 of the molar concentration; print number only

pIC50 reading for Cn1cnc(-c2cc3nccc(Oc4ccc(NC(=O)c5cnn(-c6ccccc6)c5C(F)(F)F)cc4F)c3s2)c1 : 6.30

###

Experiment: Half life in rat at 2.5 mg/kg, iv
Type: ADME, organism-based
Set-up: dose 2.5 mg/kg, route intravenous
Conditions: in vivo
quantity: half-life (h)
Kindly provide the numeric value in h only, without the unit symbol.

half-life reading for Cn1cnc(-c2cc3nccc(Oc4ccc(NC(=O)c5cnn(-c6ccccc6)c5C(F)(F)F)cc4F)c3s2)c1 : 2.7
